For reference, Ki measured on Cannabinoid receptor 1 (Rattus norvegicus, UniProt P20272):
Give bare numbers, in nM.

INSERT INTO measurements (compound, units, endpoint_value) VALUES
  ('CCCCC/C=C\C/C=C\C/C=C\C/C=C\CCCC(=O)OC1C(O)CCCC1O (single isomer, unassigned; (-))', 'nM', 770);

# input Consider the compound CCCCC/C=C\C/C=C\C/C=C\C/C=C\CCCC(=O)OC1C(O)CCCC1O (single isomer, unassigned; (+)) and give its recorded Ki.
# output 360

====

Exercise: state measured hydrolysis for each of the compounds provided.
- SUBJECT_OF_TEST: Monoglyceride lipase (Rattus norvegicus)
- PROCEDURE_SUMMARY: Activity of partially purified Sprague-Dawley rat MGL assessed as substrate hydrolysis
Give bare numbers, in %.

Examples with their reported hydrolysis follow.
INSERT INTO measurements (compound, endpoint_value) VALUES
  ('CCCCC/C=C\C/C=C\C/C=C\C/C=C\CCCC(=O)OC1C(O)CCCC1O (single isomer, unassigned; (-))', 13),
  ('CCCCC/C=C\C/C=C\C/C=C\C/C=C\CCCC(=O)OC1C(=O)CCCC1O (racemic; form 1)', 48),
  ('CCCCC/C=C\C/C=C\C/C=C\C/C=C\CCCC(=O)O[C@@H]1[C@H](O)CCC[C@@H]1O', 2),
  ('CCCCC/C=C\C/C=C\C/C=C\C/C=C\CCCC(=O)OC(CO)CO', 74);

Provide reported hydrolysis for each item, in the same order as listed.
1. CCCCC/C=C\C/C=C\C/C=C\C/C=C\CCCC(=O)OC1C(=O)CCCC1O (racemic; form 2)
2. CCCCC/C=C\C/C=C\C/C=C\C/C=C\CCCC(=O)OC1C(O)CCCC1O (single isomer, unassigned; (+))
3. CCCCC/C=C\C/C=C\C/C=C\C/C=C\CCCC(=O)O[C@H]1[C@H](O)CCC[C@@H]1O
4. CCCCC/C=C\C/C=C\C/C=C\C/C=C\CCCC(=O)OC1C(O)CCCC1O (racemic)

# output
1. 8
2. 10
3. 19
4. 1

====

Exercise: state measured hydrolysis for each of the molecules provided.
- SUBJECT_OF_TEST: Fatty-acid amide hydrolase 1 (Rattus norvegicus) (UniProt P97612)
- Sequence (whole entry): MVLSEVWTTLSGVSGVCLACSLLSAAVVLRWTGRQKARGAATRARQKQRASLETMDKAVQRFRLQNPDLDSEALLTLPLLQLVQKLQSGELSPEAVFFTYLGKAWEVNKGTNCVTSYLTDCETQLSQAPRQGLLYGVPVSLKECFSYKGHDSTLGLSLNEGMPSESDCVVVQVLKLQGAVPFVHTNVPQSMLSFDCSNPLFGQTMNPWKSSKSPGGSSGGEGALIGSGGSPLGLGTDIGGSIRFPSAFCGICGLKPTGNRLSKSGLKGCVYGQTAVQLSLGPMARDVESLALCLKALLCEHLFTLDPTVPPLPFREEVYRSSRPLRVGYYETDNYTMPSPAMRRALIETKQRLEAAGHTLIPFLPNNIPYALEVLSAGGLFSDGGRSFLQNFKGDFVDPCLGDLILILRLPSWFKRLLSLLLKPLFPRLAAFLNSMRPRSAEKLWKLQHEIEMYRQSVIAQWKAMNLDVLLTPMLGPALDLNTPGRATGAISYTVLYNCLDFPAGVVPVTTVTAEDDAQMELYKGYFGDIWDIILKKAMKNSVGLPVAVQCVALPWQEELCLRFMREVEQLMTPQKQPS
- PROCEDURE_SUMMARY: Activity of partially purified Sprague-Dawley rat FAAH assessed as substrate hydrolysis
Answers are plain numbers, in %.

Examples with their reported hydrolysis follow.
INSERT INTO results (molecule, subject_of_test, assay_endpoint, endpoint_value) VALUES
  ('CCCCC/C=C\C/C=C\C/C=C\C/C=C\CCCC(=O)O[C@H]1[C@H](O)CCC[C@@H]1O', 'Fatty-acid amide hydrolase 1 (Rattus norvegicus) (UniProt P97612)', 'hydrolysis', 78),
  ('CCCCC/C=C\C/C=C\C/C=C\C/C=C\CCCC(=O)OC1C(=O)CCCC1O (racemic; form 2)', 'Fatty-acid amide hydrolase 1 (Rattus norvegicus) (UniProt P97612)', 'hydrolysis', 100),
  ('CCCCC/C=C\C/C=C\C/C=C\C/C=C\CCCC(=O)O[C@@H]1[C@H](O)CCC[C@@H]1O', 'Fatty-acid amide hydrolase 1 (Rattus norvegicus) (UniProt P97612)', 'hydrolysis', 2),
  ('CCCCC/C=C\C/C=C\C/C=C\C/C=C\CCCC(=O)OC1C(O)CCCC1O (single isomer, unassigned; (+))', 'Fatty-acid amide hydrolase 1 (Rattus norvegicus) (UniProt P97612)', 'hydrolysis', 88),
  ('CCCCC/C=C\C/C=C\C/C=C\C/C=C\CCCC(=O)OC1C(O)CCCC1O (single isomer, unassigned; (-))', 'Fatty-acid amide hydrolase 1 (Rattus norvegicus) (UniProt P97612)', 'hydrolysis', 88),
  ('CCCCC/C=C\C/C=C\C/C=C\C/C=C\CCCC(=O)OC1C(=O)CCCC1O (racemic; form 1)', 'Fatty-acid amide hydrolase 1 (Rattus norvegicus) (UniProt P97612)', 'hydrolysis', 91),
  ('CCCCC/C=C\C/C=C\C/C=C\C/C=C\CCCC(=O)OC1C(O)CCCC1O (racemic)', 'Fatty-acid amide hydrolase 1 (Rattus norvegicus) (UniProt P97612)', 'hydrolysis', 100);

Here is another molecule to look at.
# input Given CCCCC/C=C\C/C=C\C/C=C\C/C=C\CCCC(=O)OC(CO)CO , report its hydrolysis on Fatty-acid amide hydrolase 1 (Rattus norvegicus) (UniProt P97612).
# output 100
